Property: pIC50; scope: individual molecules
# ASSAY_SYSTEM: Substance-P receptor (Homo sapiens, UniProt P25103)
# Sequence (P25103 whole entry): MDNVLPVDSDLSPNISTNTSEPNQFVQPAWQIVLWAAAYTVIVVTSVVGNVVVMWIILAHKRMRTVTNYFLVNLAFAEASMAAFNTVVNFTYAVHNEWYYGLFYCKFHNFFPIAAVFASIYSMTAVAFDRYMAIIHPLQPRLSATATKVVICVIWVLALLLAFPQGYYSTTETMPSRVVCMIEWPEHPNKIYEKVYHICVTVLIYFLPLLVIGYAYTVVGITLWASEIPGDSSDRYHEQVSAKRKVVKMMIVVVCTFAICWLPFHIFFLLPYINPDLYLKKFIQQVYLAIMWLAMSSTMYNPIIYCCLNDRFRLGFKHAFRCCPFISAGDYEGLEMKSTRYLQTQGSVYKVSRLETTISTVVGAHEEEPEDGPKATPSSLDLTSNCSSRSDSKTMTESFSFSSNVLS
# ASSAY_OVERVIEW: Compound was tested for the displacement of […] Substance P from hNK1 receptor in CHO cells
pIC50: −log10 of the molar value.
ASSAY_ENDPOINT: pIC50

>>> print(df.to_string())
                                   molecule  test_result
0  FC(F)(F)c1cc(CO[C@H]2CCCN[C@@H]2c2ccccc2)cc(C(F)(F)F)c1         6.52
1  FC(F)(F)c1cc(CO[C@H]2CCN[C@H]2c2ccccc2)cc(C(F)(F)F)c1 (racemic)         8.15
2  FC(F)(F)c1cc(CO[C@@H]2CCCN[C@@H]2c2ccccc2)cc(C(F)(F)F)c1 (stereo in doubt; (+/-)2)         8.85
3  FC(F)(F)c1cc(CO[C@@H]2CCCN[C@@H]2c2ccccc2)cc(C(F)(F)F)c1 (stereo in doubt)         6.46
